Target: recombinant human NaV1.8 stably transfected HEK cells (Homo sapiens)
Construct: expressed in transfected cells; host or cells: HEK cells, stably transfected
Test: Compound profiling on NaV1.8, human NaV1.8 cell line, SyncroPatch384PE automated patch clamp assay (Example 102, first set of compounds, Table 16)
Assay type: cell-based
Conditions: inactivated state block (P2 measurement), human NaV1.8 HEK cells, Table 16 (first set of compounds), read-out: P2IC50
# reported IC50; entries follow

molecule: CS(=O)(=O)c1cccc(NC(=O)c2cc(C(F)(F)F)cnc2Oc2ccc(F)c3cnccc23)c1
IC50: 20 to 40 nM
//
molecule: COc1cc(F)ccc1Oc1ncc(C(F)(F)F)cc1C(=O)Nc1cccc(S(C)(=O)=O)c1
IC50: ≤ 20 nM
//
molecule: COc1c(Oc2nccc(C(F)(F)F)c2C(=O)Nc2cccc(C(N)=O)c2)ccc(F)c1F
IC50: 20 to 40 nM
//
molecule: COc1cc(C#N)ccc1Oc1nnc(C(F)(F)F)c(C)c1C(=O)Nc1ccc[n+]([O-])c1
IC50: 20 to 40 nM
//
molecule: COc1cc(C#N)ccc1Oc1nnc(C(F)(F)F)c(C)c1C(=O)Nc1cccc(C(=O)N2CC(O)C2)c1
IC50: 40 to 200 nM
//
molecule: COc1ncc(C#N)cc1Oc1ncc(C(F)(F)F)cc1C(=O)Nc1cccc(S(C)(=N)=O)c1 (stereo not drawn)
IC50: 200 to 500 nM
//
molecule: COc1c(Oc2ncc(Br)cc2C(=O)Nc2cccc(S(C)(=N)=O)c2)ccc(F)c1F (stereo not drawn)
IC50: ≤ 20 nM
//
molecule: CS(=O)(=O)c1cccc(NC(=O)c2cc(C(F)(F)F)cnc2OCC2CC2)c1
IC50: 200 to 500 nM
//
molecule: COc1cc(C#N)ccc1Oc1nnc(C(F)(F)F)c(C)c1C(=O)Nc1ccc(OC)c(C(N)=O)c1
IC50: 200 to 500 nM
//
molecule: Cc1c(C(F)(F)F)nnc(Oc2ccc(OC(C)C)c(F)c2F)c1C(=O)Nc1ccnnc1
IC50: ≤ 20 nM
//
molecule: COc1cc(C#N)ccc1Oc1nc(C(F)(F)F)nc(C)c1C(=O)Nc1cccc(C(N)=O)c1
IC50: 20 to 40 nM
//
molecule: COc1cc(C#N)ccc1Oc1nnc(-c2ccc(C)nc2)c(C)c1C(=O)Nc1cccc(S(C)(=N)=O)c1 (stereo not drawn)
IC50: 200 to 500 nM
//
molecule: Cc1c(C(F)(F)F)nnc(Oc2ccc(OC(C)C)c(F)c2F)c1C(=O)Nc1cccc(S(C)(=N)=O)c1 (stereo not drawn) [Compound 1501]
IC50: ≤ 20 nM
//
molecule: COc1cc(F)ccc1Oc1ncc(C(F)(F)F)cc1C(=O)Nc1cc(S(C)(=O)=O)ccc1F
IC50: 40 to 200 nM
//
molecule: Cc1c(C(F)(F)F)nnc(Oc2ccc(OC(C)C)c(F)c2F)c1C(=O)Nc1cccc(S(C)(=N)=O)c1 (single isomer, unassigned) [Compound 1502]
IC50: ≤ 20 nM

###

Target: recombinant human NaV1.8 stably transfected HEK cells (Homo sapiens, UniProt Q9Y5Y9)
Construct: expressed in transfected cells; host or cells: HEK cells, stably transfected
Sequence (Q9Y5Y9 whole entry): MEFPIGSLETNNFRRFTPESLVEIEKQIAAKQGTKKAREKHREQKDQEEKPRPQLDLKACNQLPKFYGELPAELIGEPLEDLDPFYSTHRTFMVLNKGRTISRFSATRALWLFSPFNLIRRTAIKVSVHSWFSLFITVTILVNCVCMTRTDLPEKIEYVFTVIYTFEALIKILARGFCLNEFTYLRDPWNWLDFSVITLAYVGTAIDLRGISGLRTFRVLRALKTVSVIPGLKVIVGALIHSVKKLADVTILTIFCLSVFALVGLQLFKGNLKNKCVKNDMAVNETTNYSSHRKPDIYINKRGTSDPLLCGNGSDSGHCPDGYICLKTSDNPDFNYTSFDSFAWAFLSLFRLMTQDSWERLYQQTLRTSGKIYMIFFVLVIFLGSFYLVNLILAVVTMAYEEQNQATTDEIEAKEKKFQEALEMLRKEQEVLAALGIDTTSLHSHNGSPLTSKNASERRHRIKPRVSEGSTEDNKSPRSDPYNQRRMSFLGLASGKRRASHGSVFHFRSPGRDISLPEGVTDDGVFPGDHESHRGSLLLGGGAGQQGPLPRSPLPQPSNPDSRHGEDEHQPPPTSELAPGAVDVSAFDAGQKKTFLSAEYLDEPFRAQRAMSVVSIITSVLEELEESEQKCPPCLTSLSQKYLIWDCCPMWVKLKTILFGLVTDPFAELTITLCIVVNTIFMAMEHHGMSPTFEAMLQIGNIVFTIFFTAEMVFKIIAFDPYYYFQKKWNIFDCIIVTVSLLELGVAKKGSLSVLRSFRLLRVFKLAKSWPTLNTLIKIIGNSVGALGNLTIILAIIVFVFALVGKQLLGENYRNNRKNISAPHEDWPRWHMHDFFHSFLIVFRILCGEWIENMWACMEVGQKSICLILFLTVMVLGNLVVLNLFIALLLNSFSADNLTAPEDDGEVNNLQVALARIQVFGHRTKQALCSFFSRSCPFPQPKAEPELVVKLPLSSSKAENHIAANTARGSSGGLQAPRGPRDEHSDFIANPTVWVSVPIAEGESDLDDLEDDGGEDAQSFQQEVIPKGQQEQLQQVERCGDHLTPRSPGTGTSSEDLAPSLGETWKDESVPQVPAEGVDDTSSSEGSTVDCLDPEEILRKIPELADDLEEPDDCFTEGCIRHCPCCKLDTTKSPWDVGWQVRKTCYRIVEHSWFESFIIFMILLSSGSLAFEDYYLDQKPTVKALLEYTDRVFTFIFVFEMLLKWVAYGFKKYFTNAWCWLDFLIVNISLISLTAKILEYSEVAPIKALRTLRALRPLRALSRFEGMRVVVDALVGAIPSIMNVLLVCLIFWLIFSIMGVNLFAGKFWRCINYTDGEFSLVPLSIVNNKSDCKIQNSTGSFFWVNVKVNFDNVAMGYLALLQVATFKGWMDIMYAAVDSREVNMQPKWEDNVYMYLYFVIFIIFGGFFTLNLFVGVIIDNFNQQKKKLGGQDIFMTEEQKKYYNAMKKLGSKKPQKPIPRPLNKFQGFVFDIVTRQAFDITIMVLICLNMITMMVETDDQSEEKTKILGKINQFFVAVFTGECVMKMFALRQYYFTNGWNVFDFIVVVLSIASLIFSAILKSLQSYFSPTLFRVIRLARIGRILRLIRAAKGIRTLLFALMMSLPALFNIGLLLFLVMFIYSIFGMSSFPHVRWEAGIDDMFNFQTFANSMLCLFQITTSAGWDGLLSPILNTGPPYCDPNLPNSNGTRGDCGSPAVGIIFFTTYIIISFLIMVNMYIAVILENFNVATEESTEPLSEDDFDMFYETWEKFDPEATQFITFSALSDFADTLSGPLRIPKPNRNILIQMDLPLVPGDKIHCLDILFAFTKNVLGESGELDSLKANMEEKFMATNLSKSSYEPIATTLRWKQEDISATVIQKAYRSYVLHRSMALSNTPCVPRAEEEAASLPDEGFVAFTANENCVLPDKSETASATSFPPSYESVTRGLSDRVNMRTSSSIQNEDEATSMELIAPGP
Assay: Compound profiling on NaV1.8, human NaV1.8 cell line, SyncroPatch384PE automated patch clamp assay (Example 115, third set of compounds, Table 27)
Type: cell-based
Conditions: resting state block (P1 measurement), human NaV1.8 HEK cells, Table 27 (third set of compounds), read-out: P1 IC50

compound: COc1cc(F)ccc1Oc1nnc(C(F)(F)F)cc1C(=O)Nc1cccc(S(=O)(=O)C2CC2)c1
IC50: ≤ 200 nM

compound: COc1cc(F)ccc1Oc1nnc(C(F)(F)F)cc1C(=O)Nc1cccc(C(N)=O)c1
IC50: ≤ 200 nM

compound: CS(=O)(=O)c1cncc(NC(=O)c2cc(C(F)(F)F)nnc2Oc2ccc(F)cc2Cl)c1
IC50: > 5000 nM

compound: COc1cc(F)ccc1Oc1nnc(C(F)(F)F)cc1C(=O)Nc1cccc(NS(C)(=O)=O)c1
IC50: 1000 to 5000 nM

compound: Cc1cc(F)ccc1Oc1nnc(C(F)(F)F)cc1C(=O)Nc1ccc[n+]([O-])c1
IC50: > 5000 nM

compound: COc1cc(F)ccc1Oc1nnc(C(F)(F)F)cc1C(=O)Nc1ccc(C)c(S(C)(=O)=O)c1
IC50: ≤ 200 nM

compound: O=C1NCc2ccc(NC(=O)c3cc(C(F)(F)F)nnc3Oc3ccc(F)cc3Cl)cc21
IC50: > 5000 nM

compound: COc1cc(NC(=O)c2cc(C(F)(F)F)nnc2Oc2ccc(F)cc2OC)ccn1
IC50: ≤ 200 nM

compound: O=C(Nc1cc[nH]c(=O)c1)c1cc(C(F)(F)F)nnc1Oc1ccc(F)cc1Cl
IC50: 1000 to 5000 nM

compound: O=C(Nc1ccnnc1)c1cc(C(F)(F)F)nnc1Oc1ccc(F)cc1Cl
IC50: 201 to 500 nM

compound: Cc1cc(F)ccc1Oc1nnc(C(F)(F)F)cc1C(=O)Nc1cccc(S(C)(=O)=O)n1
IC50: > 5000 nM

compound: COc1cc(F)ccc1Oc1nnc(C(F)(F)F)cc1C(=O)Nc1ccnc(C(N)=O)c1
IC50: ≤ 200 nM

compound: Cc1cc(F)ccc1Oc1nnc(C(F)(F)F)cc1C(=O)Nc1ccc(=O)[nH]c1C
IC50: > 5000 nM

compound: Cc1cc(OC(F)(F)F)ccc1Oc1nnc(C(F)(F)F)cc1C(=O)Nc1cccc(S(C)(=O)=O)c1
IC50: ≤ 200 nM

compound: Cc1ccc(F)cc1Oc1nnc(C(F)(F)F)cc1C(=O)Nc1cc(S(C)(=O)=O)ccc1F
IC50: > 5000 nM

compound: Cc1cc(C(=O)Nc2cccc(S(C)(=N)=O)c2)c(Oc2ccc(F)cc2C)nn1 (centres unmarked)
IC50: 1000 to 5000 nM

compound: COc1cc(F)ccc1Oc1nnc(C(F)(F)F)cc1C(=O)Nc1cccc(S(N)(=O)=O)c1
IC50: ≤ 200 nM

compound: Cc1cc(F)ccc1Oc1nnc(C(F)(F)F)cc1C(=O)Nc1cccc(-n2cnnc2)c1
IC50: 1000 to 5000 nM

compound: Cc1cc(F)ccc1Oc1nnc(C(F)(F)F)cc1C(=O)Nc1ccc(C)c(S(C)(=N)=O)c1 (centres unmarked)
IC50: 201 to 500 nM

compound: COc1cc(NC(=O)c2cc(C(F)(F)F)nnc2Oc2ccc(F)cc2Cl)ccn1
IC50: > 5000 nM

compound: CSc1ccc(NC(=O)c2cc(C(F)(F)F)nnc2Oc2ccc(F)cc2C)cc1
IC50: > 5000 nM

compound: COc1ccc(F)cc1Oc1nnc(C(F)(F)F)cc1C(=O)Nc1cccc(C(N)=O)c1
IC50: 501 to 1000 nM

compound: COc1cc(F)ccc1Oc1nnc(C(F)(F)F)cc1C(=O)Nc1cccc(-n2cnnc2C)c1
IC50: 1000 to 5000 nM

compound: COc1cc(F)ccc1Oc1nnc(C(F)(F)F)cc1C(=O)Nc1ccn2cnnc2c1
IC50: 501 to 1000 nM

compound: Cc1cc(F)ccc1Oc1nnc(C(F)(F)F)cc1C(=O)Nc1cccc([S@](C)(=N)=O)c1
IC50: 501 to 1000 nM

compound: Cc1cc(C#N)ccc1Oc1nnc(C(F)(F)F)cc1C(=O)Nc1cccc(S(N)(=O)=O)c1
IC50: ≤ 200 nM

compound: Cc1cc(F)ccc1Oc1nnc(C(F)(F)F)cc1C(=O)Nc1cccc(NS(C)(=O)=O)c1
IC50: 1000 to 5000 nM

compound: Cc1c[nH]c(=O)cc1NC(=O)c1cc(C(F)(F)F)nnc1Oc1ccc(F)cc1C
IC50: > 5000 nM

compound: COc1cc(F)ccc1Oc1nnc(C(F)(F)F)cc1C(=O)Nc1cccc(S(=O)(=O)C(C)C)c1
IC50: 501 to 1000 nM

compound: COc1cc(C#N)ccc1Oc1nnc(C(F)(F)F)cc1C(=O)Nc1cccc(S(N)(=O)=O)c1
IC50: ≤ 200 nM

compound: Cc1cc(F)ccc1Oc1nnc(C(F)(F)F)cc1C(=O)Nc1cccc(CS(C)(=O)=O)c1
IC50: > 5000 nM

compound: CS(=N)(=O)c1cc(NC(=O)c2cc(C(F)(F)F)nnc2Oc2ccc(F)cc2Cl)ccn1 (centres unmarked)
IC50: 1000 to 5000 nM
